# Activity listing for each entry below
Target: Vitamin D3 receptor (Homo sapiens) (UniProt P11473)
Sequence (P11473 whole entry, the tested form may be a part): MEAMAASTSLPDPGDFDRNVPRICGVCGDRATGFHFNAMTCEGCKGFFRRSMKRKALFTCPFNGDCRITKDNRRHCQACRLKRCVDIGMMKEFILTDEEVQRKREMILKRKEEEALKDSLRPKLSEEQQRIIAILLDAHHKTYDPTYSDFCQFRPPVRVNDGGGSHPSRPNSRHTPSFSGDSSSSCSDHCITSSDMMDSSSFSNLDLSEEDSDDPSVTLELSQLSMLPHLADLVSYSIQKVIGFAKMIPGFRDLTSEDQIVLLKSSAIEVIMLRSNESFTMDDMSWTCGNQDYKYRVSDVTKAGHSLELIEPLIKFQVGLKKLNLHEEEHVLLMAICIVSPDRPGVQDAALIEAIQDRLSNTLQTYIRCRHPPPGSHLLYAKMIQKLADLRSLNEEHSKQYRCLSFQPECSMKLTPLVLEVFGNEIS
Assay: Agonist activity at human VDR expressed in HEK293 cells co-expressing CMX-GAL4N and TK-MH100x4-LUC assessed as induction of transcriptional activity at 3 uM by beta-galactosidase reporter gene assay relative to 1alpha,25(OH)2VD3
Assay type: cell-based
Report as a plain number; the unit % is understood.

Some solved entries appear below for comparison.
CCC(CC)(c1ccc(OC[C@@H](O)CO)c(C)c1)c1ccc(OC[C@H](O)C(C)(C)OCCCCCCCCO)c(C)c1
77
CCC(CC)(c1ccc(OC[C@@H](O)CO)c(C)c1)c1ccc(OC[C@@H](O)C(C)(C)OCCCCCCCCO)c(C)c1
40
CCCCCCOC(C)(C)[C@@H](O)COc1ccc(C(CC)(CC)c2ccc(OC[C@@H](O)CO)c(C)c2)cc1C
37

QUERY: Read off the recorded Activity for `CCCCCCOC(C)(C)[C@H](O)COc1ccc(C(CC)(CC)c2ccc(OC[C@@H](O)CO)c(C)c2)cc1C`
RESULT: 19
